The measured values listed here are drawn from PubChem BioAssay AID1211.

- experimental-system: Estrogen receptor (Homo sapiens)
- run-description: ERalpha ligand binders by competition, primary screen, cell-based, Cos7 ERalpha-GFP, flow cytometry (AID 1211);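 note: 0% = DMSO vehicle wells and 100% = no E2-Alexa633 signal left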
- measurement-parameters: fluorescent ligand competition, at 10 µM
Active and inactive are the calls of the source. The rule behind the calls is not given here.
Outcome codes: 1 (yes) for active, 0 (no) for inactive

# compound, category-label
measured = [
    ("O=C(COC(=O)CC1CCCC1)Nc1cc2c(cc1Cl)C(=O)c1ccccc1C2=O", "0 (no)"),
    ("COc1ccccc1N1CCN(C(=O)c2cc3c(s2)CCC3)CC1", "0 (no)"),
    ("c1coc(-c2nnc3sc(Cc4cccs4)nn23)c1", "0 (no)"),
    ("O=C(CSc1nnc(SCC(=O)c2ccco2)s1)c1ccco1", "0 (no)"),
    ("CC1CCCN(c2nc3c(c(=O)[nH]c(=O)n3C)n2Cc2ccccc2Cl)C1 (stereo not given)", "0 (no)"),
    ("CC1(C)OC(C)(C)/C(=C/Nc2ccc(O)cc2)C1=O", "0 (no)"),
    ("CCc1ccc(Nc2nc(N)nc(CSc3nnnn3-c3ccccc3)n2)cc1", "0 (no)"),
    ("CCC(=O)Oc1ccc(C(CC)C(CC)c2ccc(OC(=O)CC)cc2)cc1 (stereo not given)", "1 (yes)"),
    ("O=C(Nc1ccc(N2CCCC2)cc1)C(c1ccccc1)c1ccccc1", "0 (no)"),
    ("CC(=O)c1ccc(NCC(=O)N2CCN(c3ccccc3)CC2)cc1", "0 (no)"),
    ("Cc1nc2ccc(C(=O)O)cc2[nH]1", "0 (no)"),
    ("O=C(O)C1Nc2c(C(=O)N3CCOCC3)cccc2C2C=CCC12 (stereo not given)", "0 (no)"),
    ("CC(=O)Oc1ccc(C2Nc3c(C(=O)O)ccc([N+](=O)[O-])c3C3C=CCC32)cc1 (stereo not given)", "1 (yes)"),
    ("CC(=O)c1ccc(NC(=S)N2CCC(O)CC2)cc1", "0 (no)"),
    ("CCC1=NN2C(=N)/C(=C\\c3ccc(SCc4ccco4)o3)C(=O)N=C2S1", "0 (no)"),
    ("Cc1nc2cc(-c3ccsc3-n3c(C)ccc3C)[nH]n2c(=O)c1Cl", "0 (no)"),
    ("O=C(OC1CCCCC1)c1ccc2c(c1)C1C=CCC1C(C(=O)O)N2 (stereo not given)", "0 (no)"),
    ("O=C(CCCn1c(=S)[nH]c2cc3c(cc2c1=O)OCO3)N1CCN(c2ccc(Cl)cc2)CC1", "0 (no)"),
    ("COc1cc2c(cc1O)C(Cc1ccc(O)cc1)NCC2 (stereo not given)", "0 (no)"),
    ("O=C(CSc1ccc(Cl)cc1)c1ccco1", "0 (no)"),
    ("CCCCOC(=O)c1c(C)oc2ccc(NS(=O)(=O)c3ccc4c5c(cccc35)C(=O)N4)cc12", "1 (yes)"),
    ("CCOc1cc2c(cc1OCC)C(C(CC)CC)NCC2 (stereo not given)", "0 (no)"),
    ("Oc1ccc(-c2nnc(-c3ccccc3)c(-c3ccccc3)n2)cc1", "0 (no)"),
    ("CN1CCC(=NNC(=O)c2cn(-c3ccccc3)nc2-c2ccccc2)CC1", "0 (no)"),
    ("COc1ccc2c(c1)[nH]c1c(=O)n(N)cnc12", "0 (no)"),
    ("CCC1(CC)NC(=O)N(CC(=O)Nc2sc3c(c2C(N)=O)CCC3)C1=O", "0 (no)"),
    ("NC(=O)c1c(NC(=O)c2cccs2)sc2c1CCCCCC2", "0 (no)"),
    ("Nc1nc(N)c2sc3nc4c(cc3c2n1)CCC4", "0 (no)"),
    ("O=c1c2c([nH]c3ccccc13)C(=C1CCCC1)CC2", "0 (no)"),
    ("O=C(CSc1nc2c(cnn2-c2ccccc2)c(=O)[nH]1)c1ccc(Cl)cc1", "0 (no)"),
    ("O=C(CSc1nnnn1-c1ccccc1)Nc1nsc(-c2ccc(Cl)cc2)n1", "0 (no)"),
    ("CCOc1cccc2cc(-c3cn4cc(C)ccc4n3)c(=O)oc12", "0 (no)"),
    ("CCn1c(SCC(=O)N2CCOCC2)nc2oc3c(Cl)cc(Cl)cc3c(=O)c2c1=O", "0 (no)"),
    ("COC(=O)c1ccc2c(=O)n(CCCCCC(=O)NCc3ccc4c(c3)OCO4)c(=O)[nH]c2c1", "0 (no)"),
    ("C1CCC(c2nn3c(-c4n[nH]c5c4CCC5)nnc3s2)CC1", "0 (no)"),
    ("Cc1nn(-c2ccccc2)c2sc(C(=O)c3c(N)n(C)c(=O)n(C)c3=O)cc12", "0 (no)"),
    ("C1=C(N2CCOCC2)/C(=C/c2nc3ccccc3[nH]2)CC1", "0 (no)"),
    ("CCOC(=O)Cn1cnc2sc3c(c2c1=O)CCC3", "0 (no)"),
    ("COc1ccc2c(c1)c1nc3ccccc3nc1n2CCCN1C(=O)c2ccccc2C1=O", "0 (no)"),
    ("CC(=O)OC1CC(C)(C)N(OC(=O)c2ccc(N)cc2)C(C)(C)C1", "0 (no)"),
    ("Cc1cc(-c2nnc3sc(-c4ccc(Cl)cc4Cl)nn23)n[nH]1", "0 (no)"),
    ("O=C1NC(c2ccc(Br)cc2)Nc2sc3c(c21)CCC3 (stereo not given)", "1 (yes)"),
    ("Oc1ccccc1-c1nnc(SCCN2CCOCC2)n1Cc1ccccc1", "0 (no)"),
    ("Cc1c2cc(O)c(=O)cc-2oc2cc(O)c(O)cc12", "0 (no)"),
    ("Nc1ccc2nc(-c3cc(Cl)c(N)c(Cl)c3)[nH]c2c1", "0 (no)"),
]
